Origin of the recorded values: paper PMC9229919

# experimental_protocol: Reverse-phase thin-layer chromatographic lipophilicity (RF, RM0)
# Type: physicochemical
# condition_label: Acetone/Water/Hydrochloric acid (conc.); slope of RM = RM0 + bC
Overview of recorded b for various compounds
Just the number.

Examples from the recorded data:
1. Clc1ccc2c(NCCCNCC34CC5CC(CC(C5)C3)C4)ccnc2c1
2.949
2. CC(CCNCC12CC3CC(CC(C3)C1)C2)Nc1ccnc2cc(Cl)ccc12 (stereo not drawn)
3.007
3. FC(F)(F)c1ccc2c(NCCCNCC34CC5CC(CC(C5)C3)C4)ccnc2c1
3.156
4. Clc1ccc2c(NCCCCN(CCC34CC5CC(CC(C5)C3)C4)CCC34CC5CC(CC(C5)C3)C4)ccnc2c1
4.824
5. Clc1ccc2c(Nc3cccc4c(NCCC56CC7CC(CC(C7)C5)C6)cccc34)ccnc2c1
2.289

Please examine the following record next.
The reported b of the compound Clc1ccc2c(NCCCCCCCCNCC34CC5CC(CC(C5)C3)C4)ccnc2c1 was 4.173

###

# experimental_protocol: Reverse-phase thin-layer chromatographic lipophilicity (RF, RM0)
# Assay type: physicochemical
# condition_label: RP-18 silica; II = 80%Dioxane/15%H2O/5%HCl
metric_name: RF, Dioxane/Water/Hydrochloric acid (conc.), mobile phase II
Lab note: jot down the number only; don't add units.

1) CC(CCNCC12CC3CC(CC(C3)C1)C2)Nc1ccnc2cc(Cl)ccc12 (centres unmarked) [Compound 12]
0.75
2) Clc1ccc2c(NCCCNCC34CC5CC(CC(C5)C3)C4)ccnc2c1 [Compound 2]
0.78
3) Clc1ccc2c(NCCCCCCNCC34CC5CC(CC(C5)C3)C4)ccnc2c1 [Compound 4]
0.78
4) Clc1ccc2c(NCCCCCN(CCC34CC5CC(CC(C5)C3)C4)CCC34CC5CC(CC(C5)C3)C4)ccnc2c1 [Compound 11]
0.64
5) Clc1ccc2c(NCCNCCC34CC5CC(CC(C5)C3)C4)ccnc2c1 [Compound 8]
0.74
6) FC(F)(F)c1ccc2c(NCCCNCC34CC5CC(CC(C5)C3)C4)ccnc2c1 [Compound 7]
0.74
7) Clc1ccc2c(NCCN(CCC34CC5CC(CC(C5)C3)C4)CCC34CC5CC(CC(C5)C3)C4)ccnc2c1 [Compound 9]
0.65

Now for another entry.
Item: Clc1ccc2c(NCCCN3CCN(CCCNCC45CC6CC(CC(C6)C4)C5)CC3)ccnc2c1 [Compound 22] | RF, Dioxane/Water/Hydrochloric acid (conc.), mobile phase II: 0.78

###

# experimental_protocol: Reverse-phase thin-layer chromatographic lipophilicity (RF, RM0)
# Format: physicochemical
# condition_label: RP-18 silica; V = 70%MeOH/25%H2O/5%HCl
As shown below, each of these compounds has a reported RF, Methanol/Water/Hydrochloric acid (conc.), mobile phase V value.
# print the numeric value only

Here are 2 compounds together with their reported answers.
1) Clc1ccc2c(NCCCN3CCN(CCCNCCC45CC6CC(CC(C6)C4)C5)CC3)ccnc2c1
0.44
2) CC(CCNCC12CC3CC(CC(C3)C1)C2)Nc1ccnc2ccccc12 (stereo not shown)
0.45

Note to self: RF, Methanol/Water/Hydrochloric acid (conc.), mobile phase V recorded for Clc1ccc2c(N3CCN(CCC45CC6CC(CC(C6)C4)C5)CC3)ccnc2c1 was 0.45

Kindly note the recorded RF, Methanol/Water/Hydrochloric acid (conc.), mobile phase V for Clc1ccc2c(NCCCCCCCCNCC34CC5CC(CC(C5)C3)C4)ccnc2c1 , which is 0.34

###

# experimental_protocol: Reverse-phase thin-layer chromatographic lipophilicity (RF, RM0)
# Assay type: physicochemical
# condition_label: RP-18 silica; VII = 60%MeOH/35%H2O/5%HCl
# Description: Chromatographic determination of lipophilicity Merck, Darmstadt, Germany). The mobile phase contained organic modifier (methanol, acetone or dioxane), water and hydrochloric acid. Methanol was varied in the range […] with an increment of 10%. […] before chromatogram development. The solvent developing distance was 4.5 cm. Detection of […] All experiments were performed at ambient temperature (22±2 °C). Retention parameters were calculated as previously described. […]
metric_name: RF, Methanol/Water/Hydrochloric acid (conc.), mobile phase VII
Would you mind answering with just the numeric figure?

1. Clc1ccc2c(NCCNCCC34CC5CC(CC(C5)C3)C4)ccnc2c1
0.18
2. Clc1ccc2c(NCCCN3CCN(CCCNCCC45CC6CC(CC(C6)C4)C5)CC3)ccnc2c1
0.25
3. Clc1ccc2c(Nc3cccc(NCC45CC6CC(CC(C6)C4)C5)c3)ccnc2c1
0.22
4. CC(CCNCCC12CC3CC(CC(C3)C1)C2)Nc1ccnc2cc(Cl)ccc12 (stereo not shown)
0.16
5. Clc1ccc2c(NCCNCC34CC5CC(CC(C5)C3)C4)ccnc2c1
0.28
6. CC(CCNCC12CC3CC(CC(C3)C1)C2)Nc1ccnc2cc(Cl)ccc12 (stereo not shown)
0.25

// next item, RF, Methanol/Water/Hydrochloric acid (conc.), mobile phase VII requested
The recorded RF, Methanol/Water/Hydrochloric acid (conc.), mobile phase VII for Clc1ccc2c(NCCCCNCC34CC5CC(CC(C5)C3)C4)ccnc2c1 is 0.25

###

# experimental_protocol: Reverse-phase thin-layer chromatographic lipophilicity (RF, RM0)
# Format: physicochemical
# condition_label: Dioxane/Water/Hydrochloric acid (conc.); slope of RM = RM0 + bC
Measured b of individual entries
Please reply with the number alone, leaving off any unit.

Study these solved cases before continuing.
1. Clc1ccc2c(NCCCN3CCN(CCCNCCC45CC6CC(CC(C6)C4)C5)CC3)ccnc2c1
1.661
2. Clc1ccc2c(Nc3ccc(NCC45CC6CC(CC(C6)C4)C5)cc3)ccnc2c1
1.898
3. Clc1ccc2c(N3CCN(CC45CC6CC(CC(C6)C4)C5)CC3)ccnc2c1
1.224

Measured b, Clc1ccc2c(NCCCCN(CCC34CC5CC(CC(C5)C3)C4)CCC34CC5CC(CC(C5)C3)C4)ccnc2c1 : 2.852

The reported b of the compound Clc1ccc2c(NCCNCCC34CC5CC(CC(C5)C3)C4)ccnc2c1 was 2.1084

Reported b for FC(F)(F)c1ccc2c(NCCNCC34CC5CC(CC(C5)C3)C4)ccnc2c1 was 1.909

Lab note: measured b of Clc1ccc2c(NCCCCCCCCNCC34CC5CC(CC(C5)C3)C4)ccnc2c1 was 2.214

Looking up Clc1ccc2c(NCCCCCN(CCC34CC5CC(CC(C5)C3)C4)CCC34CC5CC(CC(C5)C3)C4)ccnc2c1 , I see its b listed as 2.862

Lab book: b of FC(F)(F)c1ccc2c(NCCCNCC34CC5CC(CC(C5)C3)C4)ccnc2c1 noted as 1.874

Recorded result, Clc1ccc2c(NCCCCCCNCC34CC5CC(CC(C5)C3)C4)ccnc2c1 , b: 1.922

According to the records, this compound Clc1ccc2c(NCCCN3CCN(CCCNCC45CC6CC(CC(C6)C4)C5)CC3)ccnc2c1 displays b of 1.493

Please fill in: b reported for CC(CCNCC12CC3CC(CC(C3)C1)C2)Nc1ccnc2cc(C(F)(F)F)ccc12 (centres unmarked) = 1.847

# b (compound: Clc1ccc2c(NCCN(CCC34CC5CC(CC(C5)C3)C4)CCC34CC5CC(CC(C5)C3)C4)ccnc2c1 ) is 3.179

// b value for CC(CCNCCC12CC3CC(CC(C3)C1)C2)Nc1ccnc2cc(Cl)ccc12 (centres unmarked) : 2.3979

###

# experimental_protocol: Reverse-phase thin-layer chromatographic lipophilicity (RF, RM0)
# Assay type: physicochemical
# condition_label: RP-18 silica; IV = 75%MeOH/20%H2O/5%HCl
Form field: RF, Methanol/Water/Hydrochloric acid (conc.), mobile phase IV (one value per entry).
Give the figure by itself; no unit, no explanation.

1. Clc1ccc2c(Nc3ccc(NCC45CC6CC(CC(C6)C4)C5)cc3)ccnc2c1
0.53

RF, Methanol/Water/Hydrochloric acid (conc.), mobile phase IV reported for this compound Clc1ccc2c(NCCCCNCC34CC5CC(CC(C5)C3)C4)ccnc2c1 : 0.53

RF, Methanol/Water/Hydrochloric acid (conc.), mobile phase IV for Clc1ccc2c(Nc3cccc4c(NCCC56CC7CC(CC(C7)C5)C6)cccc34)ccnc2c1 is 0.35

The measured RF, Methanol/Water/Hydrochloric acid (conc.), mobile phase IV associated with CC(CCNCCC12CC3CC(CC(C3)C1)C2)Nc1ccnc2cc(Cl)ccc12 (stereo not shown) reads 0.42

###

# experimental_protocol: Reverse-phase thin-layer chromatographic lipophilicity (RF, RM0)
# Format: physicochemical
# condition_label: Dioxane/Water/Hydrochloric acid (conc.); intercept of RM = RM0 + bC
Measured RM0 by item
Please reply with the value in numeric form only.

As a guide, the following entries are already answered.
1) Clc1ccc2c(NCCNCC34CC5CC(CC(C5)C3)C4)ccnc2c1
0.8129
2) CC(CCNCCC12CC3CC(CC(C3)C1)C2)Nc1ccnc2ccccc12 (centres unmarked)
0.9042
3) Clc1ccc2c(NCCCCCCNCC34CC5CC(CC(C5)C3)C4)ccnc2c1
0.9103
4) Clc1ccc2c(Nc3ccc(NCC45CC6CC(CC(C6)C4)C5)cc3)ccnc2c1
0.9452
5) Clc1ccc2c(NCCCCCCCCNCC34CC5CC(CC(C5)C3)C4)ccnc2c1
1.151

Proceed to the following item.
get_value(item= CC(CCNCC12CC3CC(CC(C3)C1)C2)Nc1ccnc2ccccc12 (centres unmarked) , readout=RM0) returns 0.8903
